For each record, write down the corresponding pIC50.
Test system: SW 1271 complex spheroids, viability
Test: Anticancer human tumor SW 1271 cell line growth inhibition [LSD1];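 also: spheroids exposed to agents for 7 days before luminescence read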
Conditions: curve of first compound; second compound 1 µM
Give bare numbers, as −log10 of the molar value.

Requested read-out: pIC50. Entry: O=C(C=Cn1cnc(-c2cc(C(F)(F)F)cc(C(F)(F)F)c2)n1)NNc1cnccn1 + NC1CC1c1ccc(-c2cccc(O)c2)cc1
7.05

Requested read-out: pIC50. Entry: O=C(C=Cc1cccc(S(=O)(=O)Nc2ccccc2)c1)NO + NC1CC1c1ccc(-c2cccc(O)c2)cc1
7.26

Requested read-out: pIC50. Entry: COc1cc(Nc2ncc3c(n2)-c2ccc(Cl)cc2C(c2c(F)cccc2OC)=NC3)ccc1C(=O)O + NC1CC1c1ccc(-c2cccc(O)c2)cc1
6.94

Requested read-out: pIC50. Entry: CC1(C)CCC(CN2CCN(c3ccc(C(=O)NS(=O)(=O)c4ccc(NCC5CCOCC5)c([N+](=O)[O-])c4)c(Oc4cnc5[nH]ccc5c4)c3)CC2)=C(c2ccc(Cl)cc2)C1 + NC1CCC(NC2CC2c2ccccc2)CC1
5.69

Requested read-out: pIC50. Entry: CC1(C)CCC(CN2CCN(c3ccc(C(=O)NS(=O)(=O)c4ccc(NCC5CCOCC5)c([N+](=O)[O-])c4)c(Oc4cnc5[nH]ccc5c4)c3)CC2)=C(c2ccc(Cl)cc2)C1 + NC1CC1c1ccc(-c2cccc(O)c2)cc1
5.60

More entries:
Requested read-out: pIC50. Entry: COc1cc(Nc2ncc3c(n2)-c2ccc(Cl)cc2C(c2c(F)cccc2OC)=NC3)ccc1C(=O)O + NC1CCC(NC2CC2c2ccccc2)CC1
6.74

====

For each record, write down the corresponding viability, T/C.
Test system: SW 1271 complex spheroids, viability
Experiment: Anticancer human tumor SW 1271 cell line growth inhibition [LSD1];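 also: spheroids exposed to agents for 7 days before luminescence read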;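 as to viability, T/C: 100% = DMSO vehicle control viability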
Conditions: second compound 3.16 µM; first compound 0.00316 µM; stronger effect = lower value
Numbers only, in %.

Please review the following examples before continuing.
Notebook: pull reported viability, T/C for SW 1271 complex spheroids, viability, entry CC(C)CC(NC(=O)C(Cc1ccccc1)NC(=O)c1cnccn1)B(O)O (centres undefined) + NC1CCC(NC2CC2c2ccccc2)CC1
0.37

Notebook: pull reported viability, T/C for SW 1271 complex spheroids, viability, entry CC[C@@]1(O)C(=O)OCc2c1cc1n(c2=O)Cc2cc3c(CN(C)C)c(O)ccc3nc2-1 + NC1CC1c1ccc(-c2cccc(O)c2)cc1
66

Notebook: pull reported viability, T/C for SW 1271 complex spheroids, viability, entry COc1cc(Nc2ncc3c(n2)-c2ccc(Cl)cc2C(c2c(F)cccc2OC)=NC3)ccc1C(=O)O + NC1CCC(NC2CC2c2ccccc2)CC1
97.3

Notebook: pull reported viability, T/C for SW 1271 complex spheroids, viability, entry CC(C)CC(NC(=O)CNC(=O)c1cc(Cl)ccc1Cl)B1OC(=O)CC(CC(=O)O)(C(=O)O)O1 (centres undefined) + NC1CCC(NC2CC2c2ccccc2)CC1
81.4

Notebook: pull reported viability, T/C for SW 1271 complex spheroids, viability, entry Nc1ncn(C2CC(O)C(CO)O2)c(=O)n1 (centres undefined) + NC1CC1c1ccc(-c2cccc(O)c2)cc1
69.5

Notebook: pull reported viability, T/C for SW 1271 complex spheroids, viability, entry CC[C@@]1(O)C(=O)OCc2c1cc1n(c2=O)Cc2cc3c(CN(C)C)c(O)ccc3nc2-1 + NC1CCC(NC2CC2c2ccccc2)CC1
72.9

Go through the list and state viability, T/C for each entry.
1. CC1COCCN1c1cc(-c2ccnn2C)c2ccnc(-c3ccn[nH]3)c2n1 (centres undefined) + NC1CCC(NC2CC2c2ccccc2)CC1
2. COc1cc(Nc2ncc3c(n2)-c2ccc(Cl)cc2C(c2c(F)cccc2OC)=NC3)ccc1C(=O)O + NC1CC1c1ccc(-c2cccc(O)c2)cc1
3. CC(C)CC(NC(=O)CNC(=O)c1cc(Cl)ccc1Cl)B1OC(=O)CC(CC(=O)O)(C(=O)O)O1 (centres undefined) + NC1CC1c1ccc(-c2cccc(O)c2)cc1

[68.4, 60.1, 61]
